- study-system: T1, Pro-Phe-Arg-MCA
- T1 chain: PFR
property-measured: kcat (s⁻¹)
# number only, unit s⁻¹ dropped from output

Return kcat for the following protein: Bovine EP serine protease (Novagen) (protein) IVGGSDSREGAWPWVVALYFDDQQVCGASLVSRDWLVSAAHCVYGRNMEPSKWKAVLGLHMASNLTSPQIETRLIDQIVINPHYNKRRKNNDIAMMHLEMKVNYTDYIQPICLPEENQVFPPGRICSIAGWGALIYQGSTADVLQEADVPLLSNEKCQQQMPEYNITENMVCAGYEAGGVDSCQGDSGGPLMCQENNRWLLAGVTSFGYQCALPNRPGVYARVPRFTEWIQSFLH 13.2

Return kcat for the following protein: Medaka EP-1 serine protease domain mutant E173A (protein) VVGGVNAEKGAWPWMVSLHWRGRHGCGASLIGRDWLLTAAHCVYGKNTHLQYWSAVLGLHAQSSMNSQEVQIRQVDRIIINKNYNRRTKEADIAMMHLQQPVNFTEWVLPVCLASEDQHFPAGRRCFIAGWGRDAEGGSLPDILQEAEVPLVDQDACQRLLPEYTFTSSMLCAGYPEGGVDSCQGDSGGPLMCLEDARWTLIGVTSFGVGCGRPERPGAYARVSAFTSWIAETRRSSFSDLD 0.153

Return kcat for the following protein: Bovine EP serine protease (New England Biolabs) (protein) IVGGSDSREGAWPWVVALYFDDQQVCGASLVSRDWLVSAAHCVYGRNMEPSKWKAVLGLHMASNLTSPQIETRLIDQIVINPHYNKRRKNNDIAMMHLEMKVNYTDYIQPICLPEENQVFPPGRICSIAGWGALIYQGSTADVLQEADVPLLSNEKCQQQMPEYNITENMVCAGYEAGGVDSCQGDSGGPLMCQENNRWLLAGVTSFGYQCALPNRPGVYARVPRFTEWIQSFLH 21.7
